Target: Histone acetyltransferase KAT6A (Homo sapiens, UniProt Q92794)
Sequence (Q92794 whole entry, the tested form may be a part): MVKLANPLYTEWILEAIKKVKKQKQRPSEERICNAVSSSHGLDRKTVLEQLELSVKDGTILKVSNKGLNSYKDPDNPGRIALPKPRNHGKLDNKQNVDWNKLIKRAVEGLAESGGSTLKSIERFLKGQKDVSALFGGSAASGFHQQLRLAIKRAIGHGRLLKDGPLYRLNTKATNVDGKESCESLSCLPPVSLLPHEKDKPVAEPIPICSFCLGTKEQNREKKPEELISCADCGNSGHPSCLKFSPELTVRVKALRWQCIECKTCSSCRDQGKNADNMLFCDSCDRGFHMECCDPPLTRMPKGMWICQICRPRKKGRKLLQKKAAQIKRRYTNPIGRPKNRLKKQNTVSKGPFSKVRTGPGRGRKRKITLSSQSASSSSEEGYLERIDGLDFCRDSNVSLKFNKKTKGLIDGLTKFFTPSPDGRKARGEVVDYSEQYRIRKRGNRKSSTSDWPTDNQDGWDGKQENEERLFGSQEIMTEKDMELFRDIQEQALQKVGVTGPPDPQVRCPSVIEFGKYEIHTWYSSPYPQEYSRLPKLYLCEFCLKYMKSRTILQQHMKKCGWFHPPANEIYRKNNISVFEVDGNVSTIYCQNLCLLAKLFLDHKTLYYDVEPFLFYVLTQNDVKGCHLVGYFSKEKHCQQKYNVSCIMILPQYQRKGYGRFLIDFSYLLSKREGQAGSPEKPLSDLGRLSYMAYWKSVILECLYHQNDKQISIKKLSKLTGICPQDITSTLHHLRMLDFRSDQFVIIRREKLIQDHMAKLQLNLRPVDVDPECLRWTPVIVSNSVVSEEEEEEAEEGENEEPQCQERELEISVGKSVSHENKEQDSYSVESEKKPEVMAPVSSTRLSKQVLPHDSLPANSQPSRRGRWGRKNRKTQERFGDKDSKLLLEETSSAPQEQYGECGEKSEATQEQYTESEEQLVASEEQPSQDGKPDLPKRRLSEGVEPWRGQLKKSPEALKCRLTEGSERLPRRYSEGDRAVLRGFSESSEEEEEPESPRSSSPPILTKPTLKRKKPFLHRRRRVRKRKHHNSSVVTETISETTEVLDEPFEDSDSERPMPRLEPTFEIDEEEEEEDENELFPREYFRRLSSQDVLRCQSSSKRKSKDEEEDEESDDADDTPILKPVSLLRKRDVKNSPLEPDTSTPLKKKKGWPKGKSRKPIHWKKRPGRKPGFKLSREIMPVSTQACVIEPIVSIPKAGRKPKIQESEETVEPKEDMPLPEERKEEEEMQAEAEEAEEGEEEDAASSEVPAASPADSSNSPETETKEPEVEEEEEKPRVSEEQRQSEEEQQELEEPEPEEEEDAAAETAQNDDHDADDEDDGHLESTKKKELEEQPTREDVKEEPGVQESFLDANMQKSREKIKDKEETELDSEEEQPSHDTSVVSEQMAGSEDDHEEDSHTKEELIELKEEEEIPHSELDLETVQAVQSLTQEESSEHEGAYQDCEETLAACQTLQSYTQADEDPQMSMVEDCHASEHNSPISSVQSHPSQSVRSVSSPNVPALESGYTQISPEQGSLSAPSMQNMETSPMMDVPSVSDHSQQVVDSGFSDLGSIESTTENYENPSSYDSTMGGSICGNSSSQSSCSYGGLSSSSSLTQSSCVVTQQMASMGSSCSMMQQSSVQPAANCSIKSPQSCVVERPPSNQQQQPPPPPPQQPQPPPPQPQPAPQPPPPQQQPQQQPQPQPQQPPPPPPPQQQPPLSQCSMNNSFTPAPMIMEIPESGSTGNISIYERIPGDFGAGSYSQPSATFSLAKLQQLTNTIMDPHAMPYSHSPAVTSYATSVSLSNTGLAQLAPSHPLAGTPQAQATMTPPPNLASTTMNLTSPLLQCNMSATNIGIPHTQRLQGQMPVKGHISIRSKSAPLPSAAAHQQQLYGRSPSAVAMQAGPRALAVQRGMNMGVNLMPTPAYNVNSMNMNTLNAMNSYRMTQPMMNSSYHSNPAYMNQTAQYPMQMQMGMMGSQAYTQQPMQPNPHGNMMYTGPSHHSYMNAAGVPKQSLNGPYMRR
Assay: Inhibition of his-tagged human recombinant KAT6A (194 to 810 residues) expressed in baculovirus-infected Sf9 insect cells using H4-derived peptide as substrate incubated for 40 mins in presence of AcCoA by TR-FRET assay

{"columns": ["Molecular string", "IC50 / nM"],
 "data": [
  ["O=C(NS(=O)(=O)c1ccccc1-c1ccccc1)c1cc2ccccc2o1", 2160],
  ["CCCN(C)c1ccc2cc(C(=O)NS(=O)(=O)c3ccccc3-c3ccccc3)oc2c1", 751],
  ["Cc1cccc2oc(C(=O)NS(=O)(=O)c3ccccc3-c3ccccc3)cc12", 454],
  ["CCCOc1ccc2cc(C(=O)NS(=O)(=O)c3ccccc3-c3ccccc3)oc2c1", 1540]
]}

---

Test: Aqueous solubility of compound in PBS at pH 6.5 incubated for 24 hrs by HPLC-UV analysis
Type: physicochemical
Experimental endpoint: solubility at 24 h (µg/mL)

{"columns": ["Molecular string", "Recorded number"],
 "data": [
  ["CN(C)c1cc(F)c2cc(C(=O)NS(=O)(=O)c3ccccc3-c3ccccc3)oc2c1", 264]
]}

---

Form field: IC50 (one value per entry).
Target: Histone acetyltransferase KAT6A (Homo sapiens)
Test: Inhibition of his-tagged human recombinant KAT6A (194 to 810 residues) expressed in baculovirus-infected Sf9 insect cells using H4-derived peptide as substrate incubated for 40 mins in presence of AcCoA by TR-FRET assay

{"columns": ["Molecular string", "Quantity unit", "Relational operator", "IC50"],
 "data": [
  ["COc1cc(C)c2cc(C(=O)NS(=O)(=O)c3ccc(C)cc3-c3ccccc3)oc2c1", "nM", "=", 10],
  ["COc1ccc2oc(C(=O)NS(=O)(=O)c3ccccc3-c3ccccc3)cc2c1", "nM", "=", 1800],
  ["COc1cc(C)c2cc(C(=O)NS(=O)(=O)c3ccc(-c4ccccc4)cc3)oc2c1", "nM", "=", 46],
  ["COc1cc(C)c2cc(C(=O)NS(=O)(=O)c3ccccc3OC)oc2c1", "nM", "=", 46],
  ["O=C(NS(=O)(=O)c1ccccc1-c1ccccc1)c1cc2c(F)cc(C3CC3)cc2o1", "nM", "=", 173],
  ["O=C(NS(=O)(=O)c1ccccc1-c1ccccc1)c1cc2ccc(N3CCOCC3)cc2o1", "nM", ">", 20000],
  ["COc1cccc2oc(C(=O)NS(=O)(=O)c3ccccc3-c3ccccc3)cc12", "nM", "=", 1350],
  ["COc1cc(C)c2cc(C(=O)NS(=O)(=O)c3ccc(Cl)cc3)oc2c1", "nM", "=", 75],
  ["CCCOc1ccccc1S(=O)(=O)NC(=O)c1cc2c(C)cc(OC)cc2o1", "nM", "=", 19],
  ["CCOc1cccc(-c2cccc(Cl)c2)c1S(=O)(=O)NC(=O)c1cc2c(C)cc(OC)cc2o1", "nM", "=", 11],
  ["COCCN(C)c1ccc2cc(C(=O)NS(=O)(=O)c3ccccc3-c3ccccc3)oc2c1", "nM", "=", 1350],
  ["COc1ccc2cc(C(=O)NS(=O)(=O)c3ccccc3-c3ccccc3)oc2c1", "nM", "=", 260],
  ["O=C(NS(=O)(=O)c1ccccc1-c1ccccc1)c1cc2ccc(OCCO)cc2o1", "nM", "=", 1370],
  ["COc1cccc2cc(C(=O)NS(=O)(=O)c3ccccc3-c3ccccc3)oc12", "nM", "=", 142],
  ["COc1cc(C)c2cc(C(=O)NS(=O)(=O)c3ccccc3-c3ccccc3)oc2c1", "nM", "=", 24],
  ["CCOc1cccc(-c2ccccc2)c1S(=O)(=O)NC(=O)c1cc2c(C)cc(OC)cc2o1", "nM", "=", 32],
  ["CCOc1ccc2cc(C(=O)NS(=O)(=O)c3ccccc3-c3ccccc3)oc2c1", "nM", "=", 554],
  ["Cc1cc(Br)cc2oc(C(=O)NS(=O)(=O)c3ccccc3-c3ccccc3)cc12", "nM", "=", 66],
  ["COc1cc(C)c2cc(C(=O)NS(=O)(=O)c3cccc4ccc(C)nc34)oc2c1", "nM", "=", 13],
  ["COc1cc(C)c2cc(C(=O)NS(=O)(=O)c3ccc(C)cc3)oc2c1", "nM", "=", 107]
]}

---

Test: Metabolic stability in rat hepatocyte assessed as maximum bioavailability of the drug measured for 2 to 90 mins by LC-MS/MS analysis
Assay type: ADME
Conditions: hepatocytes, time 2-90 min, read-out: Fmax

{"columns": ["Molecular string", "Fh"],
 "data": [
  ["CN(C)c1ccc2cc(C(=O)NS(=O)(=O)c3ccccc3-c3ccccc3)oc2c1", "42%"]
]}

---

Biological target: UniProt Q92794
Assay: Inhibition of KAT6A in human MVLN cells assessed as decrease in estrogen receptor level incubated for 24 hrs by gene reporter assay
Type: cell-based
Category key, based on recorded IC50: low: < 2 µM; medium: ≥ 2 µM and < 7 µM; high: ≥ 7 µM

{"columns": ["Molecular string", "Target or system", "Category label"],
 "data": [
  ["COc1cc(C)c2cc(C(=O)NS(=O)(=O)c3ccc(-c4ccccc4)cc3)oc2c1", "UniProt Q92794", "high"],
  ["COc1cc(C)c2cc(C(=O)NS(=O)(=O)c3ccc(C)cc3-c3ccccc3)oc2c1", "UniProt Q92794", "high"],
  ["O=C(NS(=O)(=O)c1ccccc1-c1ccccc1)c1cc2c(F)cc(C3CC3)cc2o1", "UniProt Q92794", "low"],
  ["Cc1cc(Br)cc2oc(C(=O)NS(=O)(=O)c3ccccc3-c3ccccc3)cc12", "UniProt Q92794", "high"],
  ["CCCOc1ccccc1S(=O)(=O)NC(=O)c1cc2c(C)cc(OC)cc2o1", "UniProt Q92794", "medium"],
  ["Cc1ccc2cc(C(=O)NS(=O)(=O)c3ccccc3-c3ccccc3)oc2c1", "UniProt Q92794", "high"],
  ["C=C(C)c1ccc2cc(C(=O)NS(=O)(=O)c3ccccc3-c3ccccc3)oc2c1", "UniProt Q92794", "low"],
  ["CNc1ccc2cc(C(=O)NS(=O)(=O)c3ccccc3-c3ccccc3)oc2c1", "UniProt Q92794", "medium"],
  ["O=C(NS(=O)(=O)c1ccccc1-c1ccccc1)c1cc2ccc(C(F)F)cc2o1", "UniProt Q92794", "high"],
  ["CCOc1ccc2cc(C(=O)NS(=O)(=O)c3ccccc3-c3ccccc3)oc2c1", "UniProt Q92794", "high"],
  ["CC(C)c1ccc2cc(C(=O)NS(=O)(=O)c3ccccc3-c3ccccc3)oc2c1", "UniProt Q92794", "medium"],
  ["CN(C)c1cc(F)c2cc(C(=O)NS(=O)(=O)c3ccccc3-c3ccccc3)oc2c1", "UniProt Q92794", "low"],
  ["COc1cc(C)c2cc(C(=O)NS(=O)(=O)c3ccc(C)cc3)oc2c1", "UniProt Q92794", "high"],
  ["COCCN(C)c1ccc2cc(C(=O)NS(=O)(=O)c3ccccc3-c3ccccc3)oc2c1", "UniProt Q92794", "high"],
  ["CCOc1cccc(-c2cccc(Cl)c2)c1S(=O)(=O)NC(=O)c1cc2c(C)cc(OC)cc2o1", "UniProt Q92794", "medium"],
  ["CCCOc1ccc2cc(C(=O)NS(=O)(=O)c3ccccc3-c3ccccc3)oc2c1", "UniProt Q92794", "high"],
  ["CCCN(C)c1ccc2cc(C(=O)NS(=O)(=O)c3ccccc3-c3ccccc3)oc2c1", "UniProt Q92794", "high"],
  ["COc1cccc2cc(C(=O)NS(=O)(=O)c3ccccc3-c3ccccc3)oc12", "UniProt Q92794", "medium"],
  ["Cc1cc(C)c2cc(C(=O)NS(=O)(=O)c3ccccc3-c3ccccc3)oc2c1", "UniProt Q92794", "medium"]
]}

---

Assay: Clearance in male Wistar rat at 0.5 mg/kg, iv or 1 mg/kg, po measured upto 24 hrs by LC-MS/S analysis
Type: ADME, organism-based
Details: in vivo

{"columns": ["Molecular string", "clearance (mL/min/kg)"],
 "data": [
  ["CN(C)c1ccc2cc(C(=O)NS(=O)(=O)c3ccccc3-c3ccccc3)oc2c1", 5.67]
]}

---

Assay: Metabolic stability in dog liver microsome assessed as maximum bioavailability of the drug measured for 2 to 60 mins by LC-MS/MS analysis
Type: ADME, Canis lupus familiaris
Conditions: liver microsomes, time 2-60 min, read-out: Fmax

{"columns": ["Molecular string", "Quantity unit", "Fh"],
 "data": [
  ["CN(C)c1ccc2cc(C(=O)NS(=O)(=O)c3ccccc3-c3ccccc3)oc2c1", "%", 80]
]}

---

Experiment: Volume of distribution at steady state in mouse at 0.5 mg/kg, iv
Format: ADME, organism-based
Conditions: in vivo, read-out: Vdss

{"columns": ["Molecular string", "Vd (L/kg)"],
 "data": [
  ["CN(C)c1ccc2cc(C(=O)NS(=O)(=O)c3ccccc3-c3ccccc3)oc2c1", 0.32]
]}
